Listing: z-score of selected molecules
test-summary: modulators of S6 phosphorylation in cells, primary screen, cell-based, A549, cytoblot, luminescence, serum-stimulated (AID 1158);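 note: serum-stimulated A549 lung adenocarcinoma cells; signal is phosphorylated S6 detected by cytoblot immunostaining with HRP secondary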
test-settings: A549 phospho-S6 cytoblot, 5 h, higher = more signal
property: z-score

{"molecule": "Cc1ccc(S[C@]2(C(=O)NCC(F)(F)F)CC(=O)N(Cc3ccccc3C(F)(F)F)[C@@H]2c2ccc(CO)cc2I)cc1", "observed-result": -0.142}
{"molecule": "C=CC[C@@]1(C(=O)N2CCOCC2)N=C(c2ccc(OCCCO)cc2)O[C@@H]1c1ccccc1CN=[N+]=[N-]", "observed-result": 0.36}
{"molecule": "Cn1cccc1C(O)C1C=CC2C(=O)NC(=O)C2N1Nc1ccc(Cl)cc1Cl (centres undefined)", "observed-result": -1.42}
{"molecule": "O=C1c2ccccc2[C@](Cc2ccccc2I)(C(=O)NCC(F)(F)F)[C@H](c2ccc(CO)cc2)N1C1CCCCC1", "observed-result": 0.175}

====

test-summary: binders of probe aFST on microarray, primary screen, stem cell growth factor project, biochemical, small-molecule microarray, fluorescence 635/667 (AID 1086);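 note: score merges 667 nm fluorescence with signal-to-noise of each printed compound spot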
test-settings: higher = more signal

{"compound": "COCCOC(=O)N1C(=O)[C@@]2(c3cc(C#Cc4ccc(OC)cc4)ccc31)[C@H](c1ccccc1OCCO)N1[C@H](c3ccccc3)[C@H](c3ccccc3)OC(=O)[C@H]1[C@@H]2C(=O)N1CCCCCCC1", "composite z-score": 3.39}
{"compound": "CN(C)c1ccc(C(O)C2C=CC3C(=O)N(c4ccccc4)C(=O)C3N2Nc2ccc([N+](=O)[O-])cc2)cc1 (stereo unspecified)", "composite z-score": 1.63}
{"compound": "C=CCC(OC(C)=O)[C@@H]1[C@@H](N(Cc2ccc(-c3cccc(C(F)(F)F)c3)o2)C(=O)c2ccc(C)cc2)c2cc(OCCCO)ccc2N1C(=O)c1ccc2ccccc2c1 (stereo partly specified)", "composite z-score": 0.0494}
{"compound": "O[C@@H](Cc1ccccc1)[C@@H](/C=C/C1CC1)N(CC#Cc1ccccc1)Cc1cccc(Cl)c1", "composite z-score": -0.959}
{"compound": "N#Cc1ccc(NN2C(C(O)c3ccc(F)cc3)C=CC3C(=O)N(c4ccccc4)C(=O)C32)cc1 (stereo unspecified)", "composite z-score": 0.87}
{"compound": "O=C1C2C=CC(C(O)c3ccccc3)N(Nc3ccccc3F)C2C(=O)N1c1ccccc1 (stereo unspecified)", "composite z-score": 0.444}

====

Listing: composite z-score of selected molecules
Test system: PRMT1 (protein arginine N-methyltransferase 1)
test-summary: PRMT1 binders on small-molecule microarrays, primary screen, biochemical, small-molecule microarray, 635 nm fluorescence (AID 1088);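 note: binding of Prmt1 protein to compounds spotted on small-molecule microarray slides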
test-settings: small-molecule microarray binding, higher = more signal

{"molecule": "O=C1OCC=C[C@H]2OC34C=CCN(c5ccc(Cl)cc5)C(=O)[C@H]3N(CCO)C(=O)[C@@H]4[C@@H]12 (stereo partly drawn)", "assay-system": "PRMT1 (protein arginine N-methyltransferase 1)", "composite z-score": 0.197}
{"molecule": "CC(C)[Si](C#C[Si](C(C)C)(C(C)C)C(C)C)(O[C@H](C)c1cn([C@H](CO)Cc2ccccc2)nn1)C(C)C", "assay-system": "PRMT1 (protein arginine N-methyltransferase 1)", "composite z-score": 0.857}
{"molecule": "COCCOC(=O)N1C(=O)[C@@]2(c3cc(C#CCCO)ccc31)[C@H](C(=O)Nc1nc3ccccc3s1)[C@H]1C(=O)O[C@H](c3ccccc3)[C@H](c3ccccc3)N1[C@@H]2c1ccccc1OCCO", "assay-system": "PRMT1 (protein arginine N-methyltransferase 1)", "composite z-score": 1.54}
{"molecule": "C=CCOC(=O)[C@H]1[C@@H]2C(=O)O[C@@H](c3ccccc3)[C@@H](c3ccccc3)N2[C@@H](c2ccc(OCCOC(=O)[C@H]3C[C@H]4C(=O)N[C@@H](CC(C)C)C(=O)N4[C@H]3c3cccc(OCCO)c3)cc2)[C@]12C(=O)Nc1ccc(I)cc12", "assay-system": "PRMT1 (protein arginine N-methyltransferase 1)", "composite z-score": 1.48}
{"molecule": "CC(c1ccccc1)C(O)C1C=CC2C(=O)N(c3ccccc3)C(=O)C2N1Nc1ccc([N+](=O)[O-])cc1 (stereo not drawn)", "assay-system": "PRMT1 (protein arginine N-methyltransferase 1)", "composite z-score": 1.07}
{"molecule": "COc1ccc([Si](C)(C)[C@@H]2[C@@H](CCn3cc([C@H](O)c4ccccc4)nn3)O[C@]3(C(=O)N(Cc4ccc(N5CCC5=O)cc4)c4ccccc43)[C@H]2C)cc1", "assay-system": "PRMT1 (protein arginine N-methyltransferase 1)", "composite z-score": 0.0655}
{"molecule": "N#Cc1ccc(NN2C(C(O)c3ccc(F)cc3)C=CC3C(=O)N(c4ccccc4)C(=O)C32)cc1 (stereo not drawn)", "assay-system": "PRMT1 (protein arginine N-methyltransferase 1)", "composite z-score": 1.24}
{"molecule": "O=C1O[C@@H](c2ccccc2)[C@@H](c2ccccc2)N2[C@@H](c3ccc(OCCO)cc3)[C@]3(C(=O)Nc4ccccc43)[C@@H](C(=O)O)[C@H]12", "assay-system": "PRMT1 (protein arginine N-methyltransferase 1)", "composite z-score": 0.194}
{"molecule": "COCCOC(=O)N1C(=O)[C@@]2(c3cc(C#CC4=CCCCC4)ccc31)[C@H](C(=O)N1CCCCCCC1)[C@H]1C(=O)O[C@H](c3ccccc3)[C@H](c3ccccc3)N1[C@@H]2c1ccc(O)cc1", "assay-system": "PRMT1 (protein arginine N-methyltransferase 1)", "composite z-score": 1.56}
{"molecule": "C=CCN1C(=O)[C@@]2(CCS(=O)(=O)c3ccccc3)N=C(c3ccc(OCCCO)cc3)O[C@H]2c2ccccc21", "assay-system": "PRMT1 (protein arginine N-methyltransferase 1)", "composite z-score": 1.54}
{"molecule": "O=C1O[C@H](c2ccccc2)[C@H](c2ccccc2)N2[C@H]1[C@@H](C(=O)Nc1nc3ccccc3s1)[C@]1(C(=O)Nc3ccc(C#CCCO)cc31)[C@H]2c1ccc(O)cc1", "assay-system": "PRMT1 (protein arginine N-methyltransferase 1)", "composite z-score": 1.55}
{"molecule": "COC(=O)C1=CC(CCCO)=CC(C2CC2)N(C)C=C1C(=O)OC (stereo not drawn)", "assay-system": "PRMT1 (protein arginine N-methyltransferase 1)", "composite z-score": 0.723}
{"molecule": "O=C1NC(=O)C2C1C=CC(C(O)c1ccco1)N2Nc1ccccn1 (stereo not drawn)", "assay-system": "PRMT1 (protein arginine N-methyltransferase 1)", "composite z-score": 0.184}

====

assay-system: Homeobox protein Hox-A13 (Mus musculus) (UniProt Q62424)
Sequence (Q62424 whole entry, looked up): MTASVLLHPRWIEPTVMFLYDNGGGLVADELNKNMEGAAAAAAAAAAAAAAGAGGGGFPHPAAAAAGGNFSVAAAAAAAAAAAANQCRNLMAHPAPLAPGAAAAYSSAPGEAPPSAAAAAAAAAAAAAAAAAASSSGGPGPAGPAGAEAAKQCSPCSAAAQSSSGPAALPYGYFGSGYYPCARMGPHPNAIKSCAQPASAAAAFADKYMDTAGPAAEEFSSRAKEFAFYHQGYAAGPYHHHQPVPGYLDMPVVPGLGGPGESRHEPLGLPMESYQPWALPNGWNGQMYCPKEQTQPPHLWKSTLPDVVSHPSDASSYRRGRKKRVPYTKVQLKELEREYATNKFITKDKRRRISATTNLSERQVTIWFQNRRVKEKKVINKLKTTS
test-summary: inhibitors of HoxA13-DNA binding, primary screen, biochemical, fluorescence polarization, labeled oligonucleotide (AID 1185)
test-settings: 15 min, higher = more signal, called active from +8 up or from −8 down
Listing: z-score of selected compounds

{"compound": "CC(C)(C)N1CC=CC23O[C@@H]4C=CCOC(=O)[C@@H]4[C@H]2C(=O)N(CCCCCCO)[C@@H]3C1=O (stereo partly drawn)", "z-score": -4.45}
{"compound": "COCCCNC(=O)[C@]1(CCS(=O)(=O)c2ccccc2)N=C(c2ccc(OCCCO)cc2)O[C@@H]1c1ccccc1N=[N+]=[N-]", "z-score": -3.71}
{"compound": "OCC1CC(c2ccccc2)=NO1 (stereo not drawn)", "z-score": 0.0368}
{"compound": "CCOC(=O)C[C@H]1[C@H](OC(=O)Cc2ccc3c(c2)OCO3)[C@@H](NC(=O)CC(C)C)c2cc(OCCCO)ccc2N1C(=O)Cc1ccc(OC)cc1", "z-score": -3.35}
{"compound": "C=CCN1Cc2ccccc2[C@H]2OC(c3ccc(OCCCO)cc3)=N[C@@]2(CC=C)C1=O", "z-score": -3.06}
{"compound": "O=C1O[C@H](c2ccccc2)[C@H](c2ccccc2)N2[C@H]1[C@@H](C(=O)Nc1nc3ccccc3s1)[C@]1(C(=O)Nc3ccccc31)[C@H]2c1ccc(OCCO)cc1", "z-score": 1.24}
{"compound": "O=C(NCC(F)(F)F)[C@@H]1c2ccccc2C(=O)N(Cc2ccc(OC(F)(F)F)cc2)[C@H]1c1ccc(CO)cc1", "z-score": -3.13}
{"compound": "CCOC(=O)C1=CC[C@@H](c2cccc(Cl)c2)N(S(=O)(=O)c2ccc(C)cc2)C1", "z-score": -1.21}
{"compound": "COc1cc2c(cc1OC)CN(C(=O)[C@@H]1[C@H]3C(=O)O[C@H](c4ccccc4)[C@H](c4ccccc4)N3[C@H](c3ccc(OCCO)cc3)[C@@]13C(=O)Nc1ccccc13)CC2", "z-score": -8.07}
{"compound": "C=CCC(OC(C)=O)[C@@H]1[C@@H](N(Cc2ccc(-c3cccc(C(F)(F)F)c3)o2)C(=O)c2ccc(-c3ccccc3)cc2)c2cc(OCCCO)ccc2N1C(=O)c1ccc2ccccc2n1 (stereo partly drawn)", "z-score": -1.33}
{"compound": "CC(C)OC(=O)C=C1C[C@@H](c2ccc(C(F)(F)F)cc2)O[C@@H](c2ccc(C(F)(F)F)cc2)O1", "z-score": -3.22}
{"compound": "CC(C)C(CO)N1C(=O)[C@@H]2C3C(=O)OCCC/C=C\\[C@H]3OC23C=CCN(C(C)(C)C)C(=O)[C@@H]13 (stereo partly drawn)", "z-score": -5.07}
{"compound": "COC(=O)c1nc2oc1CC[C@@H](CO)NC(=O)N(C)Cc1cnnn1C[C@H](Cc1ccccc1)NC2=O", "z-score": -0.449}
{"compound": "COCCCNC(=O)[C@@]1(Cc2ccccc2CN=[N+]=[N-])N=C(c2ccc(OCCCO)cc2)O[C@H]1c1ccccc1", "z-score": -6.47}
{"compound": "O=C(NCC(F)(F)F)[C@@H]1c2ccccc2C(=O)N(Cc2cc(F)cc(C(F)(F)F)c2)[C@H]1c1ccc(CO)cc1", "z-score": -2.64}
{"compound": "C=CC[C@]1(C(=O)NCCN2CCOCC2)N=C(c2ccc(OCCCO)cc2)O[C@H]1c1ccccc1CN=[N+]=[N-]", "z-score": -4.74}
{"compound": "CN(C)CCCNC(=O)[C@@]1(c2ccc([N+](=O)[O-])cc2)CC(=O)N(CC23CC4CC(CC(C4)C2)C3)[C@@H]1c1ccc(CO)cc1I", "z-score": 8.34}
{"compound": "CO[C@H]1O[C@H](CO)[C@@H](OC(=O)Nc2ccc3c(c2)OCO3)[C@H](OC(=O)c2cc3ccccc3[nH]2)[C@H]1OC(=O)c1cc2ccccc2[nH]1", "z-score": -4.88}
{"compound": "COC(=O)[C@@]1(Cc2ccccc2)[C@H]2c3cc(C(=O)N(C)C)n(Cc4c(CO)[nH]cc(C)c4=O)c3C[C@H]2CN1C(=O)c1ccccc1", "z-score": -5.3}
{"compound": "COC(=O)c1c2oc(c1C(=O)OC)C(=O)N(Cc1ccccc1)Cc1cn(nn1)C[C@H](Cc1ccccc1)NC(=O)N[C@H](CO)CC2", "z-score": -4.5}
{"compound": "O=C1C2C=CC(C(O)c3ccc(Br)cc3)N(Nc3ccccc3F)C2C(=O)N1c1ccccc1 (stereo not drawn)", "z-score": -2.41}
{"compound": "CC(C)(C)OC(=O)CC[C@]1(C(=O)NCc2ccccc2)N=C(c2ccc(OCCCO)cc2)O[C@H]1c1ccccc1CN=[N+]=[N-]", "z-score": -1.28}
{"compound": "Cc1cc(C)cc(N2C(=O)CSC2c2cccc([N+](=O)[O-])c2)c1 (stereo not drawn)", "z-score": 0.0457}
{"compound": "CCOC(=O)C1=CC[C@@H](c2ccc(OCc3ccccc3)c(OC)c2)N(S(=O)(=O)c2ccc(C)cc2)[C@H]1c1ccc(SC)cc1", "z-score": 1.81}
{"compound": "C#CCN([C@@H](Cc1ccc(O)cc1)C(=O)OC)[C@@H](/C=C/C1CC1)[C@H](O)Cc1ccccc1", "z-score": -7.49}
{"compound": "CCOC(=O)C[C@H]1[C@H](OC(=O)Cc2ccc3c(c2)OCO3)[C@@H](NC(=O)Cc2ccc(OC)cc2)c2cc(OCCCO)ccc2N1C(=O)c1ccc2ccccc2n1", "z-score": -3.37}
{"compound": "Cc1ccc(S[C@]2(C(=O)O)CC(=O)N(Cc3cc(C(F)(F)F)cc(C(F)(F)F)c3)[C@@H]2c2ccc(CO)cc2)cc1", "z-score": -3.18}
{"compound": "C=CCNC(=O)[C@H]1[C@@H]2C(=O)O[C@@H](c3ccccc3)[C@@H](c3ccccc3)N2[C@@H](c2ccc(O)cc2)[C@]12C(=O)Nc1ccc(C#CC3(O)CCCCCC3)cc12", "z-score": -3.96}
